assay: qHTS assay to identify small molecule antagonists of the thyroid receptor (TR) signaling pathway (AID 743065); settings: GH3.TRE-Luc, T3-stimulated luciferase inhibition, 23.5 h; series mostly up to 70.3 µM; also: nearly all actives have a fitted effect of over 55% in size
Results filed as inconclusive are left out. Activity calls are given as the source filed them. Calls follow the shape of the dose curve; as a rule, active = well fitted inhibition curve with a large enough effect in the repeat runs; inconclusive = weak or mixed curves; inactive = no such curve, though single readings can be large or run the other way.
Pick one and only one: active, inactive

Solved cases (5 shown):
CCOc1ccc(N=Nc2ccc(N)cc2N)cc1; active
CC(=O)N=c1sc(S(N)(=O)=O)nn1C; inactive
OC[C@H]1OC([S-])[C@H](O)[C@@H](O)[C@@H]1O.[Au+] (stereo partly specified); active
CCCCCCCCCCCCCCCCCC(=O)OCCO; inactive
C[C@]12CC[C@@H]3c4ccc(OC(=O)c5ccccc5)cc4CC[C@H]3[C@@H]1CC[C@@H]2O; inactive

Task item: So what was the verdict on c1cnc2cc3c(cc2n1)[C@@H]1CNC[C@H]3C1 in this test?
Reply: inactive

====

target: Peroxisome proliferator-activated receptor gamma (Homo sapiens) (UniProt P37231); experiment: qHTS assay to identify small molecule agonists of the peroxisome proliferator-activated receptor gamma (PPARg) signaling pathway (AID 743094); settings: HEK293H PPARg-UAS-bla, beta-lactamase FRET ratio, 17 h; series mostly up to 57 µM
Sequence (P37231 whole entry, looked up): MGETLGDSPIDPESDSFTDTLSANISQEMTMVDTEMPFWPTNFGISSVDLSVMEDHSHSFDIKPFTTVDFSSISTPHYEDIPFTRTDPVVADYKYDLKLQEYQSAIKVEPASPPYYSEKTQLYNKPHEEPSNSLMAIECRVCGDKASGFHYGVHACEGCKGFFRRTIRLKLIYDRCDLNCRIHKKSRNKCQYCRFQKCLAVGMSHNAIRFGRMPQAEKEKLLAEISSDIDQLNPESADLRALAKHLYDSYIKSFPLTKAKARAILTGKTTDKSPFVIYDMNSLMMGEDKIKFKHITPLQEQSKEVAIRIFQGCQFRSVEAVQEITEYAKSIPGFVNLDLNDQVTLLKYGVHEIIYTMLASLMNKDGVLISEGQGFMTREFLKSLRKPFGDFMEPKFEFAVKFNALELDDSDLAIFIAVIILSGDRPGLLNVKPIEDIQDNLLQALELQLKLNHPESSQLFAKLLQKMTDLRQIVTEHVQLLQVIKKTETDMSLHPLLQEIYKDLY
Results filed as inconclusive are left out. The source made the active and inactive calls. Calls follow the shape of the dose curve; as a rule, active = well fitted activation curve with a large enough effect in the signal ratio in the repeat runs (not every such curve was filed as active); inconclusive = weak or mixed curves, or effect the other way; inactive = no such curve, though single readings can be large or run the other way; the % refers to the signal ratio.
propertyName: outcome

CCCc1nc(C(C)(C)O)c(C(=O)OCc2oc(=O)oc2C)n1Cc1ccc(-c2ccccc2-c2nn[nH]n2)cc1; inactive
CS(=O)(=O)OCC(O)C(O)COS(C)(=O)=O (centres undefined); inactive
COc1cc(NCCCC(C)N)c2ncccc2c1 (centres undefined); inactive
C[C@@H]1C/C=C/C=C/C=C/C=C/[C@H](O[C@@H]2O[C@H](C)[C@@H](O)[C@H](N)[C@@H]2O)C[C@@H]2O[C@](O)(C[C@@H](O)C[C@H]3O[C@@H]3/C=C/C(=O)O1)C[C@H](O)[C@H]2C(=O)O; inactive

====

test: qHTS assay for identifying genotoxic compounds that show differential cytotoxicity against isogenic chicken DT40 cell lines with known DNA damage response pathways - wild type cell line (AID 743012); conditions: DT40 wild type chicken cells viability, CellTiter-Glo, 40 h; series mostly up to 68.4 µM; also: nearly all actives have a fitted effect of over 60% in size
Records with an inconclusive call do not appear. Activity calls are given as the source filed them. Calls come from the whole dose curve; as a rule, active = well fitted cell-killing curve with a large enough effect in the repeat runs; inconclusive = weak or mixed curves, or effect the other way; inactive = no such curve, though single readings can be large or run the other way.
Pick one and only one: active, inactive

Task item: So what was the verdict on CCN(CC)CCOc1ccc2nc(N(C)C)sc2c1 in this test?
Reply: active

Task item: Now this one: CC1CS(=O)(=O)CCN1/N=C/c1ccc([N+](=O)[O-])o1 (centres undefined)
Reply: inactive

Task item: Now this one: COc1ccc(CNCC(O)COc2ccc3[nH]c(=O)ccc3c2)cc1OC (centres undefined)
Reply: inactive

Task item: Now this one: C[C@H](/C=C/[C@H](C)C(C)(C)O)[C@H]1CC[C@H]2/C(=C/C=C3C[C@@H](O)C[C@H](O)C3)CCC[C@]12C
Reply: inactive

Task item: Now this one: CCNC(=O)[C@@H]1CCCN1C(=O)[C@H](CCCN=C(N)N)NC(=O)[C@H](CC(C)C)NC(=O)[C@@H](CC(C)C)NC(=O)[C@H](Cc1ccc(O)cc1)NC(=O)[C@H](CO)NC(=O)[C@H](Cc1c[nH]c2ccccc12)NC(=O)[C@H](Cc1cnc[nH]1)NC(=O)[C@@H]1CCC(=O)N1
Reply: inactive

Task item: Now this one: CN(C)CCCN1c2ccccc2C(C)(C)c2ccccc21
Reply: active

Task item: Now this one: O=C[C@H](O)[C@@H](O)[C@H](O[C@H]1O[C@H](CO)[C@@H](O[C@H]2O[C@H](CO)[C@@H](O)[C@H](O)[C@H]2O)[C@H](O)[C@H]1O)[C@H](O)CO
Reply: inactive

Task item: Now this one: CC[C@@H](C(=O)[C@@H](C)[C@@H](O)[C@H](C)[C@@H]1O[C@@H]([C@@H](CC)C(=O)O)CC[C@@H]1C)[C@H]1O[C@]2(C=C[C@@H](O)[C@]3(CC[C@@](C)([C@H]4CC[C@](O)(CC)[C@H](C)O4)O3)O2)[C@H](C)C[C@@H]1C
Reply: active

Task item: Now this one: COc1cc(NCCCC(C)N)c2ncccc2c1 (centres undefined)
Reply: active

Task item: Now this one: Nc1nc2c(c(=O)[nH]1)N(C=O)C(CNc1ccc(C(=O)N[C@@H](CCC(=O)O)C(=O)O)cc1)CN2 (some centres undefined)
Reply: inactive

Task item: Now this one: CN(C)CCOc1ccccc1Cc1ccccc1 (tested in a mixture with another compound)
Reply: active

Task item: Now this one: CCNC(=O)[C@@H]1CCCN1C(=O)[C@H](CCCN=C(N)N)NC(=O)[C@H](CC(C)C)NC(=O)[C@@H](Cc1c[nH]c2ccccc12)NC(=O)[C@H](Cc1ccc(O)cc1)NC(=O)[C@H](CO)NC(=O)[C@H](Cc1c[nH]c2ccccc12)NC(=O)[C@H](Cc1cnc[nH]1)NC(=O)[C@@H]1CCC(=O)N1
Reply: active

Task item: Now this one: CN(C(=O)CO)c1c(I)c(C(=O)NCC(O)CO)c(I)c(C(=O)NCC(O)CO)c1I (centres undefined)
Reply: inactive

Task item: Now this one: O=C(O)COc1ccc(CCNS(=O)(=O)c2ccccc2)s1
Reply: inactive
